Data credit: patent US20230348453A1

Recorded Rsq, Total for the following compounds
TEST SETTINGS: mouse, in vivo, po, 30 mg/kg
METRIC: Rsq, Total

INSERT INTO measurements (compound, quantitative_readout) VALUES
  ('Cc1nc(Nc2ncc(C(=O)Nc3c(CF)csc3Cl)s2)cc(N2CCN(C)CC2)n1', 0.84),
  ('Cc1nc(Nc2ncc(C(=O)Nc3c(C)csc3Cl)s2)cc(N2CCN(CCO)CC2)n1', 0.99),
  ('Cc1nc(Nc2ncc(C(=O)Nc3c(C(F)F)csc3Cl)s2)cc(N2CCN(CCO)CC2)n1', 0.90),
  ('Cc1nc(Nc2ncc(C(=O)Nc3c(CF)csc3Cl)s2)cc(N2CCN(C)C(C)C2)n1 (racemic)', 0.81);
